The reported numbers originate from the Human Domainome abundance scans (Beltran et al. 2025).

B1: POU domain, class 4, transcription factor 1, residues 266 to 347; numbered along this chain, Q01851 (parent)
chain: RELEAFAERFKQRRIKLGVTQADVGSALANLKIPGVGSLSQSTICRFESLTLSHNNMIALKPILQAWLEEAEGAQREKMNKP

- Variants of: B1
- measurement description: abundance fitness (aPCA) (normalised: wild type 0, dead -1); higher = more abundant; growth selection in yeast, the domain comes from the species named
- condition summary: Homo sapiens
Reported abundance fitness by item:

# annotated cases, reported abundance fitness shown
Dear colleague, I am looking for the recorded abundance fitness of the following variant: RELEAFAEQFKQRRIKLGVTQADVGSALANLKIPGVGSLSQSTICRFESLTLSHNNMIALKPILQAWLEEAEGAQREKMNKP [R9Q]
-0.043

Dear colleague, I am looking for the recorded abundance fitness of the following variant: RELEAFAERFKQRRIKLGVTQADVGSALANLKIPGVGLLSQSTICRFESLTLSHNNMIALKPILQAWLEEAEGAQREKMNKP [S38L]
-0.11

Dear colleague, I am looking for the recorded abundance fitness of the following variant: RELEAFAERFKQRRIKLGVTQADVGSALANLKIPGVGSLSQSTICRFESLTLSHNNMIALKPILQAWLEEAEGAQREKMNLP [K81L]
0.043

Dear colleague, I am looking for the recorded abundance fitness of the following variant: RELEAFAERFKQRRIKLGVTQADVGSHLANLKIPGVGSLSQSTICRFESLTLSHNNMIALKPILQAWLEEAEGAQREKMNKP [A27H]
-0.07

Dear colleague, I am looking for the recorded abundance fitness of the following variant: RELEAFAERFKQRRIKLGVTQADVGSALANLKIPGVGSLSQSTICRFESLTLSHNNMIALKPILQAWLEEAEGARREKMNKP [Q75R]
-0.028

Dear colleague, I am looking for the recorded abundance fitness of the following variant: RELEAFAERFKQRRIKLGVTQADVGSALANLKIPGVGSLSQSTICRFESLTLSHNNMIALKPILQAWLEEAEMAQREKMNKP [G73M]
-0.065

Dear colleague, I am looking for the recorded abundance fitness of the following variant: RELEAFAERFKQRRIKLGVTQAMVGSALANLKIPGVGSLSQSTICRFESLTLSHNNMIALKPILQAWLEEAEGAQREKMNKP [D23M]
-0.022

Dear colleague, I am looking for the recorded abundance fitness of the following variant: RELEAFAERFKQRRIKLGVTKADVGSALANLKIPGVGSLSQSTICRFESLTLSHNNMIALKPILQAWLEEAEGAQREKMNKP [Q21K]
0.062

Further cases:
Dear colleague, I am looking for the recorded abundance fitness of the following variant: RELEAFAERFKQRRIKLGVTQADVGSALANLKIPGVGSLSQSTIYRFESLTLSHNNMIALKPILQAWLEEAEGAQREKMNKP [C45Y]
-0.037

Dear colleague, I am looking for the recorded abundance fitness of the following variant: RELEAFAERFKQHRIKLGVTQADVGSALANLKIPGVGSLSQSTICRFESLTLSHNNMIALKPILQAWLEEAEGAQREKMNKP [R13H]
-0.103

Dear colleague, I am looking for the recorded abundance fitness of the following variant: RELEAFAERFKQRRIKLGVTQADVGSALANLKIPGVGSLSQRTICRFESLTLSHNNMIALKPILQAWLEEAEGAQREKMNKP [S42R]
-0.006

Dear colleague, I am looking for the recorded abundance fitness of the following variant: RELEAFAERFKQRRAKLGVTQADVGSALANLKIPGVGSLSQSTICRFESLTLSHNNMIALKPILQAWLEEAEGAQREKMNKP [I15A]
-0.099

Dear colleague, I am looking for the recorded abundance fitness of the following variant: RELEAFAERFKQRRIKLGVTQADVGSALANLKIPGVGSLSQSTICRFESLTLSHNCMIALKPILQAWLEEAEGAQREKMNKP [N56C]
0.145

Dear colleague, I am looking for the recorded abundance fitness of the following variant: RELEAFAERFKQRRIKLGVTQADVGSALANLKIPGVGSLSQSTILRFESLTLSHNNMIALKPILQAWLEEAEGAQREKMNKP [C45L]
-0.073

Dear colleague, I am looking for the recorded abundance fitness of the following variant: RELEAFAERFKQRRIKLGVTQADVGSALANLKIPGVGSLSQSTICRFESLTLSHNNMIALKPILQAWLEEYEGAQREKMNKP [A71Y]
-0.353

Dear colleague, I am looking for the recorded abundance fitness of the following variant: RELEAFAERFKQRRIKLGVTQADVGSALANLKIPGVGSLSQSTICRFEHLTLSHNNMIALKPILQAWLEEAEGAQREKMNKP [S49H]
-0.062

Dear colleague, I am looking for the recorded abundance fitness of the following variant: RELEAFAERFKQRRIKLGVTQADVGSALANLKIPGVGSLSQSTICRFESLTLSHNNMIALKPILQAWLKEAEGAQREKMNKP [E69K]
-0.036

Dear colleague, I am looking for the recorded abundance fitness of the following variant: RELEAFAERFKQRRIKLGVTQADVGSALAGLKIPGVGSLSQSTICRFESLTLSHNNMIALKPILQAWLEEAEGAQREKMNKP [N30G]
-0.009

Dear colleague, I am looking for the recorded abundance fitness of the following variant: RELEAFAERFKQRRIKLGVTQADVGSALANLKIPGVGSLSQSTICRFESLTLSHNNMIALKPILEAWLEEAEGAQREKMNKP [Q65E]
0.061

Dear colleague, I am looking for the recorded abundance fitness of the following variant: RELEAFAERFKQRRIKLGVTQADVGSGLANLKIPGVGSLSQSTICRFESLTLSHNNMIALKPILQAWLEEAEGAQREKMNKP [A27G]
-0.153

Dear colleague, I am looking for the recorded abundance fitness of the following variant: RELEAFAERFKQRRIKLGVTQADVGSALANLKIPGVGSLSQSTICQFESLTLSHNNMIALKPILQAWLEEAEGAQREKMNKP [R46Q]
0.042

Dear colleague, I am looking for the recorded abundance fitness of the following variant: RELEAFAERFKQRRIKLGVTQADVGSALANLKIPGVGSLSQSTICRFESLTLSHNNMISLKPILQAWLEEAEGAQREKMNKP [A59S]
-0.016

Dear colleague, I am looking for the recorded abundance fitness of the following variant: RCLEAFAERFKQRRIKLGVTQADVGSALANLKIPGVGSLSQSTICRFESLTLSHNNMIALKPILQAWLEEAEGAQREKMNKP [E2C]
-0.306

Dear colleague, I am looking for the recorded abundance fitness of the following variant: RELEAFAERFKQRRIKLGVTQADVGSALANLKIPGVGSLSQSTICRFESLTFSHNNMIALKPILQAWLEEAEGAQREKMNKP [L52F]
-0.24
